# test target: H. sapiens SLC2A9 variant 2 (GLUT9B) (Homo sapiens, UniProt Q9NRM0)
# Sequence (Q9NRM0 1-511 isoform Q9NRM0-2): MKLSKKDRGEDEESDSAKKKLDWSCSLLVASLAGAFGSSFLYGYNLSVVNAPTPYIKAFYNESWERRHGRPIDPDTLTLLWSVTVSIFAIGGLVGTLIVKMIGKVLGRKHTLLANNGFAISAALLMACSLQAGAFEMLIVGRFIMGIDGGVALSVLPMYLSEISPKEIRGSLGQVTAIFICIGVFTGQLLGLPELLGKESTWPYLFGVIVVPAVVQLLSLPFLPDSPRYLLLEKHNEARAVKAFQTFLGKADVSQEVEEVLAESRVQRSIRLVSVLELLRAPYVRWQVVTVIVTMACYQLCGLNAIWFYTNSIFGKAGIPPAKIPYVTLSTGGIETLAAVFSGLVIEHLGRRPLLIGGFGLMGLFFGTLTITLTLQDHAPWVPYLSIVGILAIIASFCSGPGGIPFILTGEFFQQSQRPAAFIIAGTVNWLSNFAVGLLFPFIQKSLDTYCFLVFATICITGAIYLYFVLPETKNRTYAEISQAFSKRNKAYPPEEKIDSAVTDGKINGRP
# test details: GLUT9 functional assay: uric acid uptake in HEK293T cells, allantoin formation by MS/MS as proxy of GLUT9B inhibition
# Type: cell-based
# condition info: 15 minute assay; HEK293T cells stably expressing GLUT9B and transiently A. oryzae uricase; uric acid 0.3 mM, 37° C.; read-out: 15 min IC50
experimental readout: IC50

-- ask Dear colleague, please send me the reported IC50 for COCCn1ccc2cc(-c3ncc(COC)nc3N3CCC(C(=O)O)CC3)cc(F)c21 [Compound 50] when you can.
-- reply > 2000 nM

-- ask Dear colleague, please send me the reported IC50 for COCCCc1cnc(-c2ccc3occc3c2)c(N2CCC(C(=O)O)CC2)n1 [Compound 172] when you can.
-- reply < 500 nM

-- ask Dear colleague, please send me the reported IC50 for CCCCc1cnc(-c2cnc(OC)s2)c(N2CCC(C(=O)O)CC2)n1 [Compound 44] when you can.
-- reply > 2000 nM

-- ask Dear colleague, please send me the reported IC50 for O=C(O)C1CCN(c2nc(CCCC(F)(F)F)cnc2-c2ccc3occc3c2)CC1 [Compound 123] when you can.
-- reply < 500 nM
